For each of the compounds below, state its pIC50.
Target: D(2) dopamine receptor (Homo sapiens, UniProt P14416)
Sequence (P14416 whole entry): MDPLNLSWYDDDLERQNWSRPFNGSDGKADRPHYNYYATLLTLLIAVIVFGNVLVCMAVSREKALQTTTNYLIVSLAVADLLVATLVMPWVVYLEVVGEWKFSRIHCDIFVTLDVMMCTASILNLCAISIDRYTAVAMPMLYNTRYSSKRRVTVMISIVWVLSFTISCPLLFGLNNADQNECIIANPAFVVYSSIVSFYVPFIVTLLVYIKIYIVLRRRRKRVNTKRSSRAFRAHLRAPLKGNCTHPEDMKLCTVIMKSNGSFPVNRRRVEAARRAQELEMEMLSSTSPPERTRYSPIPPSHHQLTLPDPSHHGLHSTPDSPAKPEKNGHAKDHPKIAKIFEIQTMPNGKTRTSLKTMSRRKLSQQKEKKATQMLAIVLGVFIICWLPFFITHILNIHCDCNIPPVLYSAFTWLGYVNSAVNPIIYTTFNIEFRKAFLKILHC
Assay: Compound was tested for its affinity towards dopaminergic (D2) receptor
pIC50: −log10 of the molar value.

INPUT: Could you share what pIC50 was measured for Cc1ccccc1N1CCN(C(=O)COc2ccc3[nH]cc(CCN)c3c2)CC1 , tested on D(2) dopamine receptor (Homo sapiens, UniProt P14416)?
OUTPUT: < 5.00

INPUT: Could you share what pIC50 was measured for NCCc1c[nH]c2ccc(OCC(=O)N3CCN(c4cccc5ccccc45)CC3)cc12 , tested on D(2) dopamine receptor (Homo sapiens, UniProt P14416)?
OUTPUT: < 6.00
